# test summary: Photochromic response on optical bench (lambda max, sensitivity, saturation optical density, bleach rate) of naphthopyrans imbibed into test square polymerizates
# Assay type: physicochemical
# test settings: UV exposure continued for 20 minutes; diethylene glycol bis(allyl carbonate); 75° F. (23.9° C.)
Just so you know, the groups by Δ OD @ SATURATION go like this: lo = under 0.2, med = from 0.2 up to 0.5, hi = 0.5 and over

# molecule, class assignment
measured = [
    ("COC(=O)c1c2c(c3cc(OC)ccc3c1C)OC(c1ccc(OC)cc1)(c1ccc(OC)cc1)C=C2 [Example 9]", "hi"),
    ("CCC(=O)Oc1c(C(=O)OC)c2c(c3ccccc13)OC(c1ccccc1)(c1ccccc1)C=C2 [Example 10]", "lo"),
    ("COC(=O)c1c2c(c3ccccc3c1OC)OC(c1ccc(OC)cc1)(c1ccc(OC)cc1)C=C2 [Example 2]", "med"),
    ("CCOC(=O)COc1c(C(=O)OC)c2c(c3ccccc13)OC(c1ccc(OC)cc1)(c1ccc3c(c1)CC(C)O3)C=C2 (stereo not drawn) [Example 12]", "hi"),
    ("COC(=O)Oc1c(C(=O)OC)c2c(c3ccccc13)OC(c1ccc(C)cc1)(c1ccc(C)cc1)C=C2 [Example 6]", "lo"),
    ("COC(=O)c1c2c(c3ccccc3c1OC(C)=O)OC(c1cccc(C(F)(F)F)c1)(c1cccc(C(F)(F)F)c1)C=C2 [Example 11]", "lo"),
    ("COC(=O)c1c2c(c3ccccc3c1C)OC(c1ccc(OC)cc1)(c1ccc(OC)cc1)C=C2 [Example 8]", "med"),
    ("CCOC(=O)COc1c(C(=O)OC)c2c(c3ccccc13)OC(c1ccc(OC)cc1)(c1ccc(OC)cc1)C=C2 [Example 3]", "med"),
    ("COC(=O)c1c2c(c3ccccc3c1O)OC(c1ccc(OC)cc1)(c1ccc(OC)cc1)C=C2 [Example 1]", "lo"),
]

* * *

# test summary: Photochromic response on optical bench (lambda max, sensitivity, saturation optical density, bleach rate) of naphthopyrans imbibed into test square polymerizates
# Type: physicochemical
# test settings: Table 1; time for absorbance to reach one half the highest absorbance after removal of activating light; 75° F., 23.9° C.
quantity name: BLEACH RATE T1/2 (min)

# compound, quantity name, unit symbol, recorded number
data = [
    ("COC(=O)c1c2c(c3cc(OC)ccc3c1C)OC(c1ccc(OC)cc1)(c1ccc(OC)cc1)C=C2", "BLEACH RATE T1/2", "min", 6.27),
    ("COC(=O)c1c2c(c3ccccc3c1OC(C)=O)OC(c1cccc(C(F)(F)F)c1)(c1cccc(C(F)(F)F)c1)C=C2", "BLEACH RATE T1/2", "min", 3.63),
    ("CCOC(=O)COc1c(C(=O)OC)c2c(c3ccccc13)OC(c1ccc(OC)cc1)(c1ccc(OC)cc1)C=C2", "BLEACH RATE T1/2", "min", 3.52),
    ("COC(=O)c1c2c(c3ccccc3c1OC)OC(c1ccc(OC)cc1)(c1ccc(OC)cc1)C=C2", "BLEACH RATE T1/2", "min", 5.08),
    ("COC(=O)c1c2c(c3ccccc3c1C)OC(c1ccc(OC)cc1)(c1ccc(OC)cc1)C=C2", "BLEACH RATE T1/2", "min", 3.62),
    ("CCC(=O)Oc1c(C(=O)OC)c2c(c3ccccc13)OC(c1ccccc1)(c1ccccc1)C=C2", "BLEACH RATE T1/2", "min", 4.28),
    ("CCOC(=O)COc1c(C(=O)OC)c2c(c3ccccc13)OC(c1ccc(OC)cc1)(c1ccc3c(c1)CC(C)O3)C=C2 (stereo not drawn)", "BLEACH RATE T1/2", "min", 4.6),
    ("COC(=O)Oc1c(C(=O)OC)c2c(c3ccccc13)OC(c1ccc(C)cc1)(c1ccc(C)cc1)C=C2", "BLEACH RATE T1/2", "min", 1.67),
    ("COC(=O)c1c2c(c3ccccc3c1O)OC(c1ccc(OC)cc1)(c1ccc(OC)cc1)C=C2", "BLEACH RATE T1/2", "min", 3.92),
]
